Reported EC50 values for a set of binders
# TARGET OF ASSAY: T1, human LILRB2 expressed on cells (human, UniProt Q8N423 22-597)
# T1 construct: In 293T cells it was expressed from pCMV3-LILRB2-GFP; also called CHO-LILRB2; Jurkat-LILRB2
# T1 sequence (Q8N423 other isoform, or with tags, fused parts or gaps limits assumed): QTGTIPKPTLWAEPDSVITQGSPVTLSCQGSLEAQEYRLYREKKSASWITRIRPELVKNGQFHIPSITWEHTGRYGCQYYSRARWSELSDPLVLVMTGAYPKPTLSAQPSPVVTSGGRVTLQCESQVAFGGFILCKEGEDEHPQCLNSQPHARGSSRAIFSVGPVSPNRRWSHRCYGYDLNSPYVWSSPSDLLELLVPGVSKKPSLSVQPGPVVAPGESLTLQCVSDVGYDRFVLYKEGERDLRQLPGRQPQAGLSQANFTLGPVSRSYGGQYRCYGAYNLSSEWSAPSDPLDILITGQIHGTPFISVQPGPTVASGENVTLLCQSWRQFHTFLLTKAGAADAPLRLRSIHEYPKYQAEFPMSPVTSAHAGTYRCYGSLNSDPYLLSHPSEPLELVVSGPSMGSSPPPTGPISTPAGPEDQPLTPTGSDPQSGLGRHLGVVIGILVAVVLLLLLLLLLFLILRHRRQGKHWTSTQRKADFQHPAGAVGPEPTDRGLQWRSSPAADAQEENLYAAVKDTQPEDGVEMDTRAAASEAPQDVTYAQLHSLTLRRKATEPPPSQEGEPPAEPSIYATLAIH
# ASSAY PROTOCOL: flow cytometry, Jurkat-LILRB2 cells

- BINDER: "D2M002-124 (antibody, V domains shown) VH: QVQLVQSGAEVKKPGASVKVSCKASGYTFTSYWIEWVRQAPGQGLEWIGEILPGSGSTNYNAKFKGRVTFTTDTSTSTAYMELRSLRSDDTAVYYCARSGAGGYDSGAFAYWGQGTLVTVSS VL: AIQLTQSPSSLSASVGDRVTITCRASESVDTYGNSFMHWYQQKPGKAPKLLVYRTSNLESGVPSRFSGSGSGTDFTLTISSLQPEDFATYYCQQSNEDPWTFGGGTKVEIK"
  EC50: "0.145 µg/mL"
- BINDER: "D2M002-002 (antibody, V domains shown, Hit from immunised mice; also called clone #2; anti-LILRB1/2 clone #2) VH: EVQLQQSGPELVKPGASVKMSCKASGYTFTRYVMHWVKQKPGQGLEWIGYINPNNDGTKYNEKFKGKVTLTSDKSSSTAYMELSSLTSEDSAVYYCARGDLEILPYYDHARNAMDYWGQGTSVTVSS VL: DVQMIQSPASLSASVGETVTITCRASENIYSYLAWYQQKQGKSPQLLVYNAKTLAEGVPSRFSGSGSGTQFSLKINSLQPEDFGSYYCQHFWSTPPTFGGGTKLEIK"
  EC50: "0.258 µg/mL"
- BINDER: "D2M002-122 (antibody, V domains shown) VH: QVQLVQSGAEVKKPGASVKVSCKASGYTFTSYWIEWVRQAPGQGLEWIGEILPGEGSTNYNAKFKGRVTFTTDTSTSTAYMELRSLRSDDTAVYYCARSGAGGYDSGAFAYWGQGTLVTVSS VL: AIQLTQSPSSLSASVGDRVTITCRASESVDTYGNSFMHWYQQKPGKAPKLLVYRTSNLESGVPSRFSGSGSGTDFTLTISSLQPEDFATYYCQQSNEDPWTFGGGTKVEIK"
  EC50: "0.111 µg/mL"
- BINDER: "D2M002-101 (antibody, V domains shown, humanized and optimized variant tested beside D2M002-002; also called P211_A12) VH: QVQLVQSGAEVKKPGASVKVSCKASGYTFTRYVMHWVRQAPGQRLEWMGWINPNNEETKYSQKFKGRVTLTRDTSASTAYMELSSLRSEDTAVYYCARADLEILPYYDHARNAMDYWGQGTLVTVSS VL: DIQMTQSPSSVSASVGDRVTITCRASENIYSHLAWYQQKPGKAPKLLVYNAKSLQSGVPSRFSGSGSGTDFTLTISSLQPEDFATYYCQHFWSTPPTFGGGTKVEIK"
  EC50: "0.131 µg/mL"
- BINDER: "D2M002-103 (antibody, V domains shown, also called P212_F01) VH: QVQLVQSGAEVKKPGASVKVSCKASGYTFTRYVMHWVRQAPGQRLEWMGWINPNNEETKYSQKFKGRVTLTRDTSASTAYMELSSLRSEDTAVYYCARADLEILPYYDHARYAMDYWGQGTLVTVSS VL: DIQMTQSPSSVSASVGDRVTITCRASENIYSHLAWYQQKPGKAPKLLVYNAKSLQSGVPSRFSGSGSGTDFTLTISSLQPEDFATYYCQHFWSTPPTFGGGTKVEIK"
  EC50: "0.065 µg/mL"
- BINDER: "D2M002-126 (antibody, V domains shown, Humanized and optimized variant of D2M002-026) VH: QVQLVQSGAEVKKPGASVKVSCKASGYTFTSYWIEWVRQAPGQGLEWIGEILPGDESTNYNAKFKGRVTFTTDTSTSTAYMELRSLRSDDTAVYYCARSGAGGYDSGAFAYWGQGTLVTVSS VL: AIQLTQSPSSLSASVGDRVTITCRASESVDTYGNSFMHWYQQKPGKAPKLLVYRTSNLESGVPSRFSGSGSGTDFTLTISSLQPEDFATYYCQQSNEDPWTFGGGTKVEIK"
  EC50: "0.081 µg/mL"
